# credit: the supplement of paper PMC10126150

tested on: ATP; assay: switch fluorescence ratio, 500 uM ATP over buffer (Cy3 cluster intensity, sum of 5 cycles each) (fold (ratio)); higher = stronger signal-on switching upon ATP binding; sequences stand for … in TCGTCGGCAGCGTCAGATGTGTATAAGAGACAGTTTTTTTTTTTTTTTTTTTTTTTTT…TC; conditions: aptamer strand: ATP DNA aptamer (quencher-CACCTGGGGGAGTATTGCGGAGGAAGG + anchor), 100 nM annealed; ATP concentration: 500 uM;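 note: ATP exposure 15 min at 22 °C before imaging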
Task for the reader: assign each of the following sequences its reported switch fluorescence ratio.

Prompt: What does the data say about its switch fluorescence ratio? Entry: GGAATAGATG
Completion: 1.03

Prompt: Can you handle CCCGGAGGCC next?
Completion: 0.961

Prompt: Can you handle GATAGTTGGT next?
Completion: 1

Prompt: Can you handle CCATGGAGGT next?
Completion: 1.01

Prompt: Can you handle TTGGATCCGG next?
Completion: 0.98

Prompt: Can you handle AGATAGATTG next?
Completion: 1

Prompt: Can you handle CGGTGTTAAC next?
Completion: 0.957

Prompt: Can you handle CCGTTTCGGT next?
Completion: 0.976

Prompt: Can you handle TAAGAGCGTA next?
Completion: 1.01

Prompt: Can you handle TTTTGTTATA next?
Completion: 0.978

Prompt: Can you handle CTAAATTGCC next?
Completion: 0.999

Prompt: Can you handle TGGGATGTTA next?
Completion: 0.987

Prompt: Can you handle ATTTTGTCTC next?
Completion: 1.01

Prompt: Can you handle TTCCCTGAGA next?
Completion: 0.977

Prompt: Can you handle CAGTCCGTTT next?
Completion: 1.02

Prompt: Can you handle CAGTTAAAAA next?
Completion: 1.03

Prompt: Can you handle GTATGTGTCG next?
Completion: 1.01

Prompt: Can you handle CATATCATGG next?
Completion: 0.988

Prompt: Can you handle GTTACTGTGC next?
Completion: 1.08

Prompt: Can you handle GGGCAAGAAT next?
Completion: 0.997
